# SUBJECT_OF_TEST: MtbTMPK (Mycobacterium tuberculosis, UniProt P9WKE1)
# Sequence (P9WKE1 whole entry, looked up): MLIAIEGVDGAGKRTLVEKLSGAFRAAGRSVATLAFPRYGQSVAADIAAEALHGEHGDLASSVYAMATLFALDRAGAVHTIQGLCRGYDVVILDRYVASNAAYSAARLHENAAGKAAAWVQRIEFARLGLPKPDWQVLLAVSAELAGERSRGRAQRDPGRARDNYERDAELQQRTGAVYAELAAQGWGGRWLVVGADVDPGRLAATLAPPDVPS
# PROTOCOL_NOTES: MtbTMPK enzymatic assay (spectrophotometric coupled assay)
# Assay type: biochemical
# STATED_CONDITIONS: ATP 0.5 mM, dTMP 0.05 mM; mean ± SD of at least two measurements; NI: no inhibition at a concentration of 0.2 mM; read-out: IC50 (MtbTMPK)
Please provide measured IC50 for the entries that follow.
One number for each entry, in µM.

MOLECULE	IC50 (µM)
Cc1cn(C2CCN(CCc3ccccc3)CC2)c(=O)[nH]c1=O [Compound 21a]	680
Cc1cn(C2CCN(CCc3cccc(Oc4ccc(C#N)cc4)c3)CC2)c(=O)[nH]c1=O [Compound 21k]	126
Cc1cn(C2CCN(CCc3cccc(Oc4ccc(Cl)c(Cl)c4)c3)CC2)c(=O)[nH]c1=O [Compound 21g]	45
Cc1cn(C2CCN(CCc3cccc(OCc4ccccc4Cl)c3)CC2)c(=O)[nH]c1=O [Compound 21o]	70
Cc1cn(C2CCN(CCc3cccc(Oc4ccccc4)c3)CC2)c(=O)[nH]c1=O [Compound 3, reference compound]	17

Hi, could you look up IC50 for each item in my list?
1. Cc1cn(C2CCN(CCc3cccc(Oc4ccc([N+](=O)[O-])cc4)c3)CC2)c(=O)[nH]c1=O [Compound 21l]
2. Cc1cn(C2CCN(CCc3cccc(OCc4cccc(Cl)c4)c3)CC2)c(=O)[nH]c1=O [Compound 21q]
3. Cc1cn(C2CCN(CCc3cccc(Oc4ccc(Cl)cc4)c3)CC2)c(=O)[nH]c1=O [Compound 21h]

1: 91; 2: 44; 3: 49

====

Please provide measured pIC50 for the entries that follow.
# PROTOCOL_NOTES: In vitro cytotoxicity assay on MRC-5 fibroblasts
# Format: cell-based
# STATED_CONDITIONS: human; cytotoxicity against MRC-5 fibroblasts; read-out: IC50 (MRC-5)
One number for each entry, as −log10 of the molar value.

Some solved entries appear below for comparison.
MOLECULE	pIC50
Cc1cn(C2CCN(CCc3cccc(OCc4cccc(Cl)c4)c3)CC2)c(=O)[nH]c1=O [Compound 21q]	4.70
Cc1ccc(Oc2cccc(CCN3CCC(n4cc(C)c(=O)[nH]c4=O)CC3)c2)cc1 [Compound 21f]	5.07
Cc1cn(C2CCN(CCc3cccc(Oc4ccc(Cl)cc4)c3)CC2)c(=O)[nH]c1=O [Compound 21h]	5.24

Now for another entry.
Provide pIC50 value for the following molecule: Cc1cn(C2CCN(CCc3cccc(OCc4ccccc4Cl)c3)CC2)c(=O)[nH]c1=O [Compound 21o]
5.15

====

# PROTOCOL_NOTES: In vitro cytotoxicity assay on MRC-5 fibroblasts
# Assay type: cell-based
# STATED_CONDITIONS: human; cytotoxicity against MRC-5 fibroblasts; read-out: IC50 (MRC-5)
Please provide measured IC50 for the entries that follow.
Give bare numbers, in µM.

COMPOUND	ENDPOINT	VALUE_UNITS	VALUE_MEASURED
Cc1cn(C2CCN(CCc3cccc(Oc4cccc(Cl)c4)c3)CC2)c(=O)[nH]c1=O [Compound 21j]	IC50	µM	25.2
Cc1cn(C2CCN(CCc3ccc(-c4ccccc4)cc3)CC2)c(=O)[nH]c1=O [Compound 21b]	IC50	µM	22.2

Hi, could you look up IC50 for each item in my list?
1. Cc1cn(C2CCN(CCc3ccccc3Oc3ccccc3)CC2)c(=O)[nH]c1=O [Compound 21c]
2. Cc1cn(C2CCN(CCc3cccc(Oc4ccc(Cl)c(Cl)c4)c3)CC2)c(=O)[nH]c1=O [Compound 21g]

[26.8, 5.66]

====

# SUBJECT_OF_TEST: MtbTMPK (Mycobacterium tuberculosis, UniProt P9WKE1)
# PROTOCOL_NOTES: MtbTMPK enzymatic assay (spectrophotometric coupled assay)
# Assay type: biochemical
ENDPOINT: IC50

COMPOUND	IC50
Cc1cn(C2CCCN(CCc3cccc(Oc4ccccc4)c3)C2)c(=O)[nH]c1=O (centres unmarked) [Compound 23]	192 µM

Fetch value of IC50 on MtbTMPK (Mycobacterium tuberculosis, UniProt P9WKE1) for Cc1cn(C2CCN(C(=O)Cc3cccc(Oc4ccccc4)c3)CC2)c(=O)[nH]c1=O [Compound 26] .
230 µM

====

# Test system: MRC-5 fibroblasts
# PROTOCOL_NOTES: In vitro cytotoxicity assay on MRC-5 fibroblasts
# Type: cell-based
# STATED_CONDITIONS: IC50 (MRC-5)/MIC (H37Rv)
ENDPOINT: SI (selectivity index)
Numbers only.

Some solved entries appear below for comparison.
COMPOUND	SI (selectivity index)
Cc1cn(C2CCN(CCc3ccccc3Oc3ccccc3)CC2)c(=O)[nH]c1=O [Compound 21c]	0.54
c1ccc(Oc2cccc(CCN3CCC(c4ccccc4)CC3)c2)cc1	1.29

Provide SI (selectivity index) value for the following compound: Cc1cn(C2CCN(CCc3cccc(OCc4cccc(Cl)c4)c3)CC2)c(=O)[nH]c1=O [Compound 21q]
0.79

====

# PROTOCOL_NOTES: In vitro cytotoxicity assay on MRC-5 fibroblasts
# Assay type: cell-based
# STATED_CONDITIONS: human; cytotoxicity against MRC-5 fibroblasts; read-out: IC50 (MRC-5)
ENDPOINT: IC50

Some solved entries appear below for comparison.
COMPOUND	IC50
Cc1cn(C2CCN(CCc3cccc(Oc4ccc([N+](=O)[O-])cc4)c3)CC2)c(=O)[nH]c1=O [Compound 21l]	> 64 µM
Cc1cn(C2CCN(CCc3ccc(Oc4ccccc4)cc3)CC2)c(=O)[nH]c1=O [Compound 21e]	> 64 µM

Now for another entry.
Provide IC50 value for the following compound: Cc1cn(C2CCN(CCc3ccccc3)CC2)c(=O)[nH]c1=O [Compound 21a]
> 64 µM
